meta.source: patent US20240141072A1

# assay-target: T1, cynomolgus DLL3 (cynomolgus, UniProt A0A2K5WSR1 27-490)
# T1 construct: also called cyDLL3
# T1 sequence: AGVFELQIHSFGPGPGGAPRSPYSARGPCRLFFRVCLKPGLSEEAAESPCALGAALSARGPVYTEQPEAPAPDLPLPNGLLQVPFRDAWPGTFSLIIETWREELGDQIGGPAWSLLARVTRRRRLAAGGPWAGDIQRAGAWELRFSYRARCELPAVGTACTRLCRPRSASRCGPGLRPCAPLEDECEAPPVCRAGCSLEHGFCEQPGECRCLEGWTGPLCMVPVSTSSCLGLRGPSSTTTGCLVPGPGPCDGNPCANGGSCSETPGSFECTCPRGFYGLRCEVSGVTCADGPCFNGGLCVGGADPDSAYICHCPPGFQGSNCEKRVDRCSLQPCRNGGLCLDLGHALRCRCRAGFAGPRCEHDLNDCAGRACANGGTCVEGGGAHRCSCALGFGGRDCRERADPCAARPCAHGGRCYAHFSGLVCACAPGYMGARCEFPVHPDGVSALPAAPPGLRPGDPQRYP
# method: Octet BLI, single 60 nM
# pKd annotations
As a rule, pKd stands for the negative log10 of the concentration, concentration in M.

Query string: pKd for 1H012 anti-DLL3 trispecific protein (other, also called 1H12; not shown: linker 1808, anti-albumin sdAb, linker 1808, anti-CD3 fragment, His6 1819) EVQLVESGGGLVQPGGSLTLSCVASGSTSSINAMGWYRRAPGKQRELVAGISSDGSKVYVDSVKGRFTISRDNAKNSVYLQMNSLRAEDTAVYYCYYFRTVSGSSMPYWGQGTLVTVSS ?
Result string: 8.37

Query string: pKd for 2H02 anti-DLL3 trispecific protein (other, not shown: linker 1808, anti-albumin sdAb, linker 1808, anti-CD3 fragment, His6 1819) EVQLVESGGGLVQPGGSLTLSCVASGSTSSINAMAWYRRAPGKQRELAAGISSDGSKVYADSVKGRFTISRDNAKNSVYLQMNSLRAEDTAVYYCYYFHTVSGSSMRYWGQGTLVTVSS ?
Result string: 8.28

Query string: pKd for 4D09 anti-DLL3 trispecific protein (other, not shown: linker 1808, anti-albumin sdAb, linker 1808, anti-CD3 fragment, His6 1819) EVQLVESGGGLVQPGGSLTLSCAASGSSVKFLSMAWYRQAPGKKRELVAGISADGSTDYILSVKGRFTISRDNAKNSVYLQMNSLRAEDTAVYYCYAYEWTTRYTYWGQGTLVTVSS ?
Result string: 8.09

Query string: pKd for 3C04 anti-DLL3 trispecific protein (other, not shown: linker 1808, anti-albumin sdAb, linker 1808, anti-CD3 fragment, His6 1819) EVQLVESGGGLVQPGGSLTLSCAASGSHVSFLSMAWYRQAPGKKRELVAGISADGPTDYIDSVKGRFTISRDNAKNSVYLQMNSLRAEDTAVYYCYAYRWDTRYTYWGQGTLVTVSS ?
Result string: 8.24
